# assayed_target: Ba/F3 stable cells (Homo sapiens, UniProt P00533, INS763FQEA, cells depend on it)
# Construct: EC50 Ba/F3-EGFR A763-Y764insFQEA; other: Ba/F3-EGFR A763-Y764insFQEA cells, 72 h, CCK-8
# Sequence (P00533 with tags, fused parts or gaps INS763FQEA): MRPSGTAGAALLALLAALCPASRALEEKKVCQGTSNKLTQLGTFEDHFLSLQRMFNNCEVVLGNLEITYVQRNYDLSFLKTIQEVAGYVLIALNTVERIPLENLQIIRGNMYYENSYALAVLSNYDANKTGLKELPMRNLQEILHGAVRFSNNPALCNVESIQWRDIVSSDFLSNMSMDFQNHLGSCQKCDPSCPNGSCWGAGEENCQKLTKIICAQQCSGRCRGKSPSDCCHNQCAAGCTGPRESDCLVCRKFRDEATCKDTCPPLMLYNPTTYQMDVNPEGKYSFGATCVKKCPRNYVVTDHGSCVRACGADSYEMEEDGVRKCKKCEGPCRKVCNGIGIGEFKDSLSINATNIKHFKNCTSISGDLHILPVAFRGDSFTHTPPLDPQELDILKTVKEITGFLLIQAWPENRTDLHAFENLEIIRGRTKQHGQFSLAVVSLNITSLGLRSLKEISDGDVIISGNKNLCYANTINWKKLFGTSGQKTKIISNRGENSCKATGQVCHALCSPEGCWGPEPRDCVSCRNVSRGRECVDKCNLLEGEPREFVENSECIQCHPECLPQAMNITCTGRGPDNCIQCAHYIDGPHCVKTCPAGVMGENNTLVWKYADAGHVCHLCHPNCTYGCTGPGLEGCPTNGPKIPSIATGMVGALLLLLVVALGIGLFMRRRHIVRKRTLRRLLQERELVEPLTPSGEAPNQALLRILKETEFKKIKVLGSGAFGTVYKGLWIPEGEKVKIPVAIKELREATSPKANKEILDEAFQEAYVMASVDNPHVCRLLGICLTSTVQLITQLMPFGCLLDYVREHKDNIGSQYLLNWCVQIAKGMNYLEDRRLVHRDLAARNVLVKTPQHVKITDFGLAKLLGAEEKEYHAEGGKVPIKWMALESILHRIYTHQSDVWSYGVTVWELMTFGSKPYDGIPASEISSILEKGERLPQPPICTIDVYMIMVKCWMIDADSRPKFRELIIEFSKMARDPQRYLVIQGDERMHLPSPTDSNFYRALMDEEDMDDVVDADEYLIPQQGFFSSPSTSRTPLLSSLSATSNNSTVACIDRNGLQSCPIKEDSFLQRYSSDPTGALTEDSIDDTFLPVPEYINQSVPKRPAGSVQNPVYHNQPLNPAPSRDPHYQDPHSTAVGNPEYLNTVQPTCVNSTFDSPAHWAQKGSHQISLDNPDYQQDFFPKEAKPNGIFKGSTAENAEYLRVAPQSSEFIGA
# assay_remarks: EC50 assay: Ba/F3 stable cell proliferation (CCK-8, 72 h)
# condition_label: Ba/F3-EGFR A763-Y764insFQEA cells
pEC50: −log10 of the molar value.
Please provide measured pEC50 for the entries that follow.

pEC50 reported for this molecule C=CC(=O)N1CCC(Oc2cc3c(Nc4ccc(C)c5ccccc45)ncnc3cc2OC)CC1 : ≥ 6.70

Measured pEC50, C=CC(=O)N1CC(c2cc3c(Nc4ccc(Cl)c(Cl)c4F)ncnc3cc2OC2CCOCC2)C1 : ≥ 6.70

Item: C=CC(=O)N1CC(c2ccc3ncnc(Nc4ccc(Cl)c(Cl)c4F)c3c2)C1 | pEC50: ≥ 6.70

For this molecule ( C=CC(=O)NCC1COc2cc3ncnc(Nc4ccc(Cl)c(Cl)c4F)c3cc21 (centres unmarked) ), measured pEC50 is ≥ 6.70

Note to self: pEC50 recorded for C=CC(=O)NC1CC(Oc2cc3c(Nc4ccc(Cl)cc4F)ncnc3cc2OC)C1 (centres unmarked) was ≥ 6.70

C=CC(=O)N1CC(c2cc3c(Nc4ccc(Cl)c(Cl)c4F)ncnc3cc2OCCN2CCOCC2)C1 has a reported pEC50 of ≥ 6.70

response.value for [2H]C([2H])([2H])Oc1cc2ncnc(Nc3ccc(Cl)c(Cl)c3F)c2cc1O[C@H]1C[C@@H](NC(=O)C=C)C1 (field: pEC50) = ≥ 6.70

Entry C=CC(=O)N1CC(c2cc3c(Nc4ccc5ccccc5c4)ncnc3cc2OC)C1 ; pEC50 = ≥ 6.70

Sure, the documented pEC50 for COc1cc2ncnc(Nc3ccc(Cl)c(Cl)c3F)c2cc1OC1CC(N(C)C#N)C1 (centres unmarked) is ≥ 6.70

# molecule C=CC(=O)N1CCC(Oc2cc3c(NCc4cccc(Br)c4)ncnc3cc2OC)CC1 ; its pEC50 = ≥ 6.70

Reported pEC50 ( C=CC(=O)N1CCC(Oc2cc3c(C(=O)N[C@H](C)c4ccc(F)cc4)ncnc3cc2OC)CC1 ) = < 6.00

Notebook: C=CC(=O)NC1CC(Oc2cc3c(Nc4ccc(F)c5c4CCC5O)ncnc3cc2OC)C1 (centres unmarked) , pEC50 read as < 6.00

// field: pEC50; key: C=CC(=O)N[C@H]1C[C@@H](Oc2cc3c(Nc4ccc(Cl)c(Cl)c4F)ncnc3cc2OC2COC2)C1 ; value = ≥ 6.70

Entry under test: C=CC(=O)N1CCC(Oc2cc3c(Nc4ccc5ccccc5c4)ncnc3cc2OC)CC1 . Its pEC50 was ≥ 6.70

The molecule listed as C=CC(=O)N1CCC(Oc2cc3c(Nc4ccc5sc(C)nc5c4)ncnc3cc2OC)CC1 has a reported pEC50 of ≥ 6.70

pEC50 reading for COc1cc2ncnc(Nc3ccc(Cl)c(Cl)c3F)c2cc1C1CN(C#N)C1 : 6.00 to 6.70

What the record says about C=CC(=O)N1CCC(Oc2cc3c(NCc4cc(F)cc(Cl)c4)ncnc3cc2OC)CC1 : pEC50 is ≥ 6.70

pEC50 for C=CC(=O)N1CC(c2cc3c(Nc4ccc(Cl)c(Cl)c4F)ncnc3cc2OCCN(C)C)C1 is ≥ 6.70

molecule C=CC(=O)NC1CC(Oc2cc3c(Nc4ccc(F)c(C#N)c4)ncnc3cc2OC)C1 (centres unmarked) , pEC50 observed: 6.00 to 6.70

Looking up C=CC(=O)N1CCC(Oc2cc3c(Nc4ccc5c(c4)CCC5)ncnc3cc2OC)CC1 , I see its pEC50 listed as ≥ 6.70

Lab note: measured pEC50 of C=CC(=O)N1CC(c2cc3c(NCc4cccc(Cl)c4)ncnc3cc2OC)C1 was ≥ 6.70

Entry under test: [2H]C([2H])([2H])n1cn/c(=N\c2ccc(Cl)c(Cl)c2F)c2cc3c(cc21)OCC3CNC(=O)C=C (centres unmarked) . Its pEC50 was < 6.00

C=CC(=O)NC1CC(Oc2cc3c(Nc4ccc(F)c5c4CCC5=O)ncnc3cc2OC)C1 (centres unmarked) yielded pEC50 of < 6.00

The reported pEC50 of the molecule C=CC(=O)N1CCC(Oc2cc3c(NCc4ccccc4)ncnc3cc2OC)CC1 was ≥ 6.70

Lab note: C=CC(=O)N1C2CCC1CC(Oc1cc3c(Nc4ccc(Cl)c(Cl)c4F)ncnc3cc1OC)C2 (centres unmarked) gave pEC50 of ≥ 6.70

In plain terms, C=CC(=O)N[C@H]1CC[C@@H](Oc2cc3c(Nc4ccc(Cl)c(Cl)c4F)ncnc3cc2OC)CC1 has a documented pEC50 of ≥ 6.70

pEC50 reading for C=CC(=O)N1CCC=C(c2cc3c(Nc4ccc(Cl)c(Cl)c4F)ncnc3cc2OC)C1 : ≥ 6.70

// pEC50 value for C=CC(=O)N1CCC(Oc2c(OC)cc3ncnc4c3c2C=C(C)N4c2ccc(Cl)c(Cl)c2F)CC1 : ≥ 6.70

Lab note: [2H]C([2H])([2H])Oc1cc2ncnc(Nc3ccc(Cl)c(Cl)c3F)c2cc1C1CN(C(=O)C(=C)F)C1 gave pEC50 of ≥ 6.70

For C=CC(=O)N1C2CCC1CC(Oc1cc3c(Nc4cccc5ccccc45)ncnc3cc1OC)C2 (centres unmarked) the molecule record lists pEC50 as ≥ 6.70

Consider C=CC(=O)N1CC(c2cc3c(Nc4ccc(Cl)c(Cl)c4F)ncnc3cc2OCCOC)C1 . Its measured pEC50 is ≥ 6.70

C#CC(=O)NC1CC(Oc2cc3c(Nc4cccc5ccccc45)ncnc3cc2OC)C1 (centres unmarked) has a reported pEC50 of ≥ 6.70

---

Assign pEC50 to each entry below.
# assayed_target: Ba/F3 stable cells (Homo sapiens, UniProt P04626, DUP772-775, cells depend on it)
# Construct: EC50 Ba/F3-HER2 A775-G776insYVMA; other: Ba/F3-HER2 A775-G776insYVMA cells, 72 h, CCK-8
# Sequence (P04626 with tags, fused parts or gaps DUP772-775): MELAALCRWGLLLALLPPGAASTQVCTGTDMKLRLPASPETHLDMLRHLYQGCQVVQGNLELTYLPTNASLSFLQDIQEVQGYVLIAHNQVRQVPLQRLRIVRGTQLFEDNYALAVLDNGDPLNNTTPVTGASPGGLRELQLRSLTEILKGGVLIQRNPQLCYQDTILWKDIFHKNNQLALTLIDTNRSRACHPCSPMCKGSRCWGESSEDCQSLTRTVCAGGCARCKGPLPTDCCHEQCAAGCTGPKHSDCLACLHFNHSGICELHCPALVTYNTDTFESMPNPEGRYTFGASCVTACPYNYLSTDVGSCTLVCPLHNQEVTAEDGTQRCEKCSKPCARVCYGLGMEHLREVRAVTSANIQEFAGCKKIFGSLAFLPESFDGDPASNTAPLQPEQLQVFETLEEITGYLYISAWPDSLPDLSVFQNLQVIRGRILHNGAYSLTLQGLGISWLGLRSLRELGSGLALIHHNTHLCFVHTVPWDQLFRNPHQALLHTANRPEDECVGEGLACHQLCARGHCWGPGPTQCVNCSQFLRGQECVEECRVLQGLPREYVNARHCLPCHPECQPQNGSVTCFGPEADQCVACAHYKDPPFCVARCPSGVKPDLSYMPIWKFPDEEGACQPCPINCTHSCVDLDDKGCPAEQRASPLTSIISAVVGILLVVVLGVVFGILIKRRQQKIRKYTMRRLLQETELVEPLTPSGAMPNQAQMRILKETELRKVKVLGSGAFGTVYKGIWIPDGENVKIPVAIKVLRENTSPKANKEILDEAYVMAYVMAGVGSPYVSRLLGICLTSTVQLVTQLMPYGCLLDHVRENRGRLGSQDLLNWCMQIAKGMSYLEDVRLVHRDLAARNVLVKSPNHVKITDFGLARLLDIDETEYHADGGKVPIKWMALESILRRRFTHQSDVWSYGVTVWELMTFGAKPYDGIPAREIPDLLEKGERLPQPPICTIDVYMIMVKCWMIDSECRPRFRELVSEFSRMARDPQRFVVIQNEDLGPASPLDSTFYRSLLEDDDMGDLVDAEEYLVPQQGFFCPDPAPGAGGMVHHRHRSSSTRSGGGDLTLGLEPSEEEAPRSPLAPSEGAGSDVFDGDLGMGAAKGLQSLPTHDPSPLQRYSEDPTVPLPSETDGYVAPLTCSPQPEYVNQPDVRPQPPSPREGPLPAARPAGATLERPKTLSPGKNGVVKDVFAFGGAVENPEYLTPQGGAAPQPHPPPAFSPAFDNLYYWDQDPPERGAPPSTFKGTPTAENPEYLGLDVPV
# assay_remarks: EC50 assay: Ba/F3 stable cell proliferation (CCK-8, 72 h)
# condition_label: Ba/F3-HER2 A775-G776insYVMA cells
pEC50: −log10 of the molar value.

// sample C=CC(=O)N1CCC=C(c2cc3c(Nc4ccc(Cl)c(Cl)c4F)ncnc3cc2OC)C1 , its pEC50 was 6.00 to 6.70

Record C=CC(=O)N1CC(c2cc3c(Nc4ccc(Cl)c(Cl)c4F)ncnc3cc2OCCCN2CCOCC2)C1 , field pEC50: ≥ 6.70

Recorded pEC50 (molecule C=CC(=O)N1CCC(Oc2cc3c(Nc4ccc5[nH]ncc5c4)ncnc3cc2OC)CC1 ): < 6.00

Per the records, this molecule ( C=CC(=O)NC1CC(Oc2cc3c(Nc4ccc5c(c4)CCCC5O)ncnc3cc2OC)C1 (stereo not shown) ) has pEC50 equal to < 6.00

---

# assayed_target: Ba/F3 stable cells (Homo sapiens, UniProt P00533, DUP771-773, cells depend on it)
# Construct: EC50 Ba/F3-EGFR H773-V774insNPH; other: Ba/F3-EGFR H773-V774insNPH cells, 72 h, CCK-8
# Sequence (P00533 with tags, fused parts or gaps DUP771-773): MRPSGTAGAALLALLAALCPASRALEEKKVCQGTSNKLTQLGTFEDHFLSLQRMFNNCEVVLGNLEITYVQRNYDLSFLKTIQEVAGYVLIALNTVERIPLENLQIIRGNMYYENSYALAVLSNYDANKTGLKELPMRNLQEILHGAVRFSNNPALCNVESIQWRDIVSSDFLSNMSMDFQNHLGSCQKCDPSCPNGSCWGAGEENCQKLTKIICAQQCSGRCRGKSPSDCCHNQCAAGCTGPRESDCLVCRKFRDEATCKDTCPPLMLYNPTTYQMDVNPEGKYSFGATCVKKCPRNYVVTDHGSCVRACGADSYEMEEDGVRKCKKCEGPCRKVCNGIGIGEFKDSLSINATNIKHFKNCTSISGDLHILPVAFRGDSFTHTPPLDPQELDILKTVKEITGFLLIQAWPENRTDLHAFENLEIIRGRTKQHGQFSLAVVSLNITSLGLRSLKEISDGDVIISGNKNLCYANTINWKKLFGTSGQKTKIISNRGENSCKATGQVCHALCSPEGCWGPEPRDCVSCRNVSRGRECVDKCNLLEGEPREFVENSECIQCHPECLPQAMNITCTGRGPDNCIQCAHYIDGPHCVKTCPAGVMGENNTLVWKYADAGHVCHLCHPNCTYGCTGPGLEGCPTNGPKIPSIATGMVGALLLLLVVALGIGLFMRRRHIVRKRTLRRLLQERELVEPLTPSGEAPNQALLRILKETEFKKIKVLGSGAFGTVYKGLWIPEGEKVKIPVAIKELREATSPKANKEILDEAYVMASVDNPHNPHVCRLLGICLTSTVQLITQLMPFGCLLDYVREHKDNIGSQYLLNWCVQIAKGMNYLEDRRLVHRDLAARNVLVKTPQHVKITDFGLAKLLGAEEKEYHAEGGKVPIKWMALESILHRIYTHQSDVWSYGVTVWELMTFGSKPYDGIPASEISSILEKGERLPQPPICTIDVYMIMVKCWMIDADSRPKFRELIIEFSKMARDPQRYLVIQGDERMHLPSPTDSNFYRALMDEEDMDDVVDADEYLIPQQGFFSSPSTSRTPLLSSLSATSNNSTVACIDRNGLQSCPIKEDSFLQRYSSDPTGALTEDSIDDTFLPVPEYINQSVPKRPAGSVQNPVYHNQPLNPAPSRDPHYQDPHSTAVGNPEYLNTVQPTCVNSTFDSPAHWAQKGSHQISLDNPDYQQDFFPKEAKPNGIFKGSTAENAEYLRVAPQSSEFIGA
# assay_remarks: EC50 assay: Ba/F3 stable cell proliferation (CCK-8, 72 h)
# condition_label: Ba/F3-EGFR H773-V774insNPH cells
pEC50: −log10 of the molar value.
quantity_name: pEC50

Given item C=CC(=O)N1CCC(Oc2cc3c(Nc4ccc5[nH]ncc5c4)ncnc3cc2OC)CC1 , the value recorded as its pEC50 is 6.00 to 6.70

For this compound ( C=CC(=O)N1CCC(Oc2cc3c(Nc4ccc5ccccc5c4Cl)ncnc3cc2OC)CC1 ), measured pEC50 is 6.00 to 6.70

Sure, the documented pEC50 for C=CC(=O)N1CCC(Oc2cc3c(NCc4cccc(Cl)c4F)ncnc3cc2OC)CC1 is ≥ 6.70

Notebook: C=CC(=O)N1CC(c2cc3c(Nc4ccc5[nH]ccc5c4)ncnc3cc2OC)C1 , pEC50 read as ≥ 6.70

---

# assayed_target: Ba/F3 stable cells (Homo sapiens, UniProt P00533, DUP768-770, cells depend on it)
# Construct: EC50 Ba/F3-EGFR D770-N771insSVD; other: Ba/F3-EGFR D770-N771insSVD cells, 72 h, CCK-8
# Sequence (P00533 with tags, fused parts or gaps DUP768-770): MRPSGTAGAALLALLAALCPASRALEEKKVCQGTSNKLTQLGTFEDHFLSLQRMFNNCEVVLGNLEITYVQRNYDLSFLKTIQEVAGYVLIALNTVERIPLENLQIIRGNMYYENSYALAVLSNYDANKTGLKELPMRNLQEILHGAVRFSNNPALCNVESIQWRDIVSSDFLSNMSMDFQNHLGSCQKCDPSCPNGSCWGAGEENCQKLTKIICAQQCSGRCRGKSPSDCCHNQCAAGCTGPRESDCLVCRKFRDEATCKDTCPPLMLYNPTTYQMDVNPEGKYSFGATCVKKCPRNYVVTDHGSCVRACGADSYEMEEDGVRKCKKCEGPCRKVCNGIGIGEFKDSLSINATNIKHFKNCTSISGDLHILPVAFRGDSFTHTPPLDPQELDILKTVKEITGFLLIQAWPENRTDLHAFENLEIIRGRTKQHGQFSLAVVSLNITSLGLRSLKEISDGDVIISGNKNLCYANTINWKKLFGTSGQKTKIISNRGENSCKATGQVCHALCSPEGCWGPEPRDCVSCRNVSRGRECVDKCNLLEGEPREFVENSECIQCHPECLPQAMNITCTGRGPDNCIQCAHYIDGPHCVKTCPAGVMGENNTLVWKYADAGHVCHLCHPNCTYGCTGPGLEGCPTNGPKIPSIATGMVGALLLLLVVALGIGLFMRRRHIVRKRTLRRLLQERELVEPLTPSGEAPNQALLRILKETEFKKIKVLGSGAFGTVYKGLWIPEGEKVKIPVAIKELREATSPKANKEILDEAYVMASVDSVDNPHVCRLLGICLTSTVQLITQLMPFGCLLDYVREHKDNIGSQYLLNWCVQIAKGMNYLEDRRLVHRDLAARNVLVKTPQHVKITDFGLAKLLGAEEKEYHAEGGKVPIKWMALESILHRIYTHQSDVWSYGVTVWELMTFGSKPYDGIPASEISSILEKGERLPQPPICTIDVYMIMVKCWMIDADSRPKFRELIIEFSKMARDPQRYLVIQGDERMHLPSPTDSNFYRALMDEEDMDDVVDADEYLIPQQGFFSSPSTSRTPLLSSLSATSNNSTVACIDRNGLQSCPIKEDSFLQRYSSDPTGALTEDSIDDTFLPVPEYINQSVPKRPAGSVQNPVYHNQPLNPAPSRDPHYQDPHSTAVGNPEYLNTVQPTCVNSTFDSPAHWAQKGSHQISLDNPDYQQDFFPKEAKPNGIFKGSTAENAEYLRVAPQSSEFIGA
# assay_remarks: EC50 assay: Ba/F3 stable cell proliferation (CCK-8, 72 h)
# condition_label: Ba/F3-EGFR D770-N771insSVD cells
Record form. Attribute: EC50. Fill in for each entry.

The compound C=CC(=O)N1CCC(Oc2cc3c(Nc4ccc5cn[nH]c5c4)ncnc3cc2OC)CC1 showed EC50 equal to > 1000 nM

Form: compound = C=CC(=O)NC1CC(Oc2cc3c(Nc4ccc(F)c5c4CCC5=O)ncnc3cc2OC)C1 (centres unmarked) ; EC50 = > 1000 nM

What the record says about C=CC(=O)N1CC(c2cc3c(Nc4cccc5ccccc45)ncnc3cc2OC)C1 : EC50 is 200 to 1000 nM

For C=CC(=O)N1CCC(Oc2cc3c(NCc4ccc(Cl)c(F)c4)ncnc3cc2OC)CC1 the compound record lists EC50 as > 1000 nM

Recorded result, C=CC(=O)N[C@H]1C[C@@H](Oc2cc3c(Nc4ccc(Cl)c(Cl)c4F)ncnc3cc2O[C@H]2CCOC2)C1 , EC50: 200 to 1000 nM

EC50 for C=CC(=O)N[C@H]1C[C@@H](Oc2cc3c(Nc4ccc(Cl)c(Cl)c4F)ncnc3cc2OC2COC2)C1 is 200 to 1000 nM

The value of EC50 measured for the compound C=CC(=O)N1CCC(Oc2cc3c(Nc4cc5ccccc5cn4)ncnc3cc2OC)CC1 turned out to be > 1000 nM

EC50 reading for C=CS(=O)(=O)NC1CC(Oc2cc3c(Nc4ccc(Cl)c(Cl)c4F)ncnc3cc2OC)C1 (centres unmarked) : ≤ 200 nM

Given item C=C(F)C(=O)N1CC(c2cc3c(Nc4ccc(Cl)c(Cl)c4F)ncnc3cc2O[C@H]2CCOC2)C1 , the value recorded as its EC50 is 200 to 1000 nM

Input C=CC(=O)N1CCC(Oc2cc3c(Nc4ccc5cnccc5c4)ncnc3cc2OC)CC1 . Output EC50: > 1000 nM

For reference, reported EC50 for C=CC(=O)N1C2CCCC1CC(Oc1cc3c(Nc4cccc5c4CCC5)ncnc3cc1OC)C2 (centres unmarked) stands at > 1000 nM

Measured EC50 of C=CC(=O)N1C2CCC1CC(Oc1cc3c(Nc4ccc(Cl)c(Cl)c4F)ncnc3cc1OC)C2 (centres unmarked) : ≤ 200 nM

According to the records, this compound C=CC(=O)N1CCC(Oc2cc3c(NCc4cccc(Cl)c4F)ncnc3cc2OC)CC1 displays EC50 of 200 to 1000 nM

compound C=CC(=O)N1CCC(Oc2c(OC)cc3ncnc4c3c2N(C)C(=O)N4c2ccc(Cl)c(Cl)c2F)CC1 , EC50 observed: > 1000 nM

// field: EC50; key: COc1cc2ncnc(Nc3ccc(Cl)c(Cl)c3F)c2cc1OC1CCN(C#N)CC1 ; value = > 1000 nM

Measured EC50, [2H]C([2H])([2H])Oc1cc2ncnc(Nc3ccc(Cl)c(Cl)c3F)c2cc1C1CN(C(=O)C=C)C1 : ≤ 200 nM

Lab note: C=CC(=O)N1CCC(Oc2cc3c(NC(=O)c4ccc(F)cc4)ncnc3cc2OC)CC1 gave EC50 of > 1000 nM

Measured EC50 of C=CC(=O)N1CCC(Oc2cc3c(Nc4cccc5ccccc45)ncnc3cc2OC)CC1 : ≤ 200 nM

The recorded EC50 for entry C=CC(=O)N1CC(c2cc3c(Nc4ccc5[nH]ccc5c4)ncnc3cc2OC)C1 equals 200 to 1000 nM

// sample C=CS(=O)(=O)N1CCC(Oc2cc3c(Nc4ccc(Cl)c(Cl)c4F)ncnc3cc2OC)CC1 , its EC50 was > 1000 nM

The compound listed as C=CC(=O)N1CCCC(c2cc3c(Nc4ccc(Cl)c(Cl)c4F)ncnc3cc2OC)C1 (centres unmarked) shows EC50 equal to 200 to 1000 nM

Quick note, EC50 for C#CC(=O)N1CCC=C(c2cc3c(Nc4ccc(Cl)c(Cl)c4F)ncnc3cc2OC)C1 landed at ≤ 200 nM

Record C=C(F)C(=O)N1CCC(Oc2cc3c(Nc4ccc(Cl)c(Cl)c4F)ncnc3cc2OC)CC1 . Reported EC50: > 1000 nM

Sure, the documented EC50 for C=CC(=O)NC1CC(Oc2cc3c(Nc4cccc(Cl)c4F)ncnc3cc2OC)C1 (centres unmarked) is 200 to 1000 nM

The reported EC50 of the compound C=CC(=O)N1CCC(Oc2c(OC)cc3ncnc4c3c2NC(=O)N4c2ccc(Cl)c(Cl)c2F)C1 (centres unmarked) was > 1000 nM

Notebook: C=CC(=O)N[C@H]1C[C@H](Oc2cc3c(Nc4ccc(C#N)c(Cl)c4)ncnc3cc2OC)C1 , EC50 read as > 1000 nM

Record C=CS(=O)(=O)N1CCC(Oc2cc3c(C(=O)c4ccc(Cl)c(Cl)c4F)ncnc3cc2OC)CC1 , field EC50: > 1000 nM

// field: EC50; key: C=CC(=O)N1CC(c2cc3c(Nc4ccc(Cl)c(Cl)c4F)ncnc3cc2OCCN2CCN(C)CC2)C1 ; value = ≤ 200 nM

The compound identified as C=CC(=O)N1CC(c2cc3c(Nc4ccc(Cl)c(Cl)c4F)ncnc3cc2OC2COC2)C1 registered its EC50 at ≤ 200 nM

Lookup result for C=CC(=O)NC1CC(Oc2cc3c(Nc4ccc(F)c(Cl)c4Cl)ncnc3cc2OC)C1 (centres unmarked) ; measured EC50: 200 to 1000 nM

C=CC(=O)N1CCC(Oc2cc3c(NCc4ccccc4)ncnc3cc2OC)CC1 has a reported EC50 of 200 to 1000 nM

Lab note: C=CC(=O)NC1CC(Oc2cc3c(Nc4cccc5c4CCC5)ncnc3cc2OC)C1 (centres unmarked) gave EC50 of > 1000 nM

All figures here come from patent US20250243171A1.
